Where do the numbers come from? From patent US12319739.

study.target: T1, hMSLN-His-Avi (human, UniProt Q13421 296-598, single biotin on the Avi tag in the biotinylated form)
T1 construct: Monomeric; also called human MSLN-His-Avi; hMSLN-Avi-His
T1 sequence (Q13421 other isoform, or with tags, fused parts or gaps): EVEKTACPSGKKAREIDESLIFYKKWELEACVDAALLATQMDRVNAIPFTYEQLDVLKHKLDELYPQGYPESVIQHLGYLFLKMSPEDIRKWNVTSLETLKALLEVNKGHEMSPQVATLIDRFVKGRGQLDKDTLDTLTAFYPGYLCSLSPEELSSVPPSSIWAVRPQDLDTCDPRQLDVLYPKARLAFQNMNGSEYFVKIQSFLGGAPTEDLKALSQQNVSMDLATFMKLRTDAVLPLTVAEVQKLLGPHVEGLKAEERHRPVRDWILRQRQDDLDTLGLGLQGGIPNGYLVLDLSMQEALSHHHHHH
protocol.text: ratio of SPR KDs
Listed binders paired with reported KD ratio in solution/immobilised human MSLN

binder	result
FS22-172-003-AA/FS28-024-052 (bispecific antibody, human IgG1, kappa, L234A L235A, V domains shown, IgG1 mAb^2 with LALA) VH: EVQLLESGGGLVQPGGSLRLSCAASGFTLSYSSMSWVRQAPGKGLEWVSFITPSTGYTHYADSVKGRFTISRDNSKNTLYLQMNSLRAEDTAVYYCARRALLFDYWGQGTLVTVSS VL: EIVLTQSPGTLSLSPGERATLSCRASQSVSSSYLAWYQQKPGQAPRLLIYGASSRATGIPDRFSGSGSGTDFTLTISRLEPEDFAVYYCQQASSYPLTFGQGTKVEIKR	85
FS22-172-003-AA/FS28-256-272 (bispecific antibody, human IgG1, kappa, L234A L235A, V domains shown, IgG1 mAb^2 with LALA) VH: EVQLLESGGGLVQPGGSLRLSCAASGFTFTHTYMSWVRQAPGKGLEWVSHISPTYSTTNYADSVKGRFTISRDNNKNTLYLQMNSLRAEDTAVYYCARYNAYHAALDYWGQGTLVTVSS VL: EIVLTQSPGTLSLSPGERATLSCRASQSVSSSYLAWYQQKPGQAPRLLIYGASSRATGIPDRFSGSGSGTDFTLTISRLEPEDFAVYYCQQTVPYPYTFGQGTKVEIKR	0.7

Okay, next one:
[Q] I have this binder here, FS22-172-003-AA/FS28-256-026 (bispecific antibody, human IgG1, kappa, L234A L235A, V domains shown, IgG1 mAb^2 with LALA) VH: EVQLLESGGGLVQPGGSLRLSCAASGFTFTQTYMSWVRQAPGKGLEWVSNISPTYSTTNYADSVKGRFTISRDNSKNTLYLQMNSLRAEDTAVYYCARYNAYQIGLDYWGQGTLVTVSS VL: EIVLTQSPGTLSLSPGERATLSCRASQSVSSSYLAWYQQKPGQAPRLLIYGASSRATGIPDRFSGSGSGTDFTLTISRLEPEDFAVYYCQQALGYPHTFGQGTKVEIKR , and I need its recorded KD ratio in solution/immobilised human MSLN.
[A] 18
